Biological target: T1, hAMY3R (human, UniProt P30988)
T1 sequence 1: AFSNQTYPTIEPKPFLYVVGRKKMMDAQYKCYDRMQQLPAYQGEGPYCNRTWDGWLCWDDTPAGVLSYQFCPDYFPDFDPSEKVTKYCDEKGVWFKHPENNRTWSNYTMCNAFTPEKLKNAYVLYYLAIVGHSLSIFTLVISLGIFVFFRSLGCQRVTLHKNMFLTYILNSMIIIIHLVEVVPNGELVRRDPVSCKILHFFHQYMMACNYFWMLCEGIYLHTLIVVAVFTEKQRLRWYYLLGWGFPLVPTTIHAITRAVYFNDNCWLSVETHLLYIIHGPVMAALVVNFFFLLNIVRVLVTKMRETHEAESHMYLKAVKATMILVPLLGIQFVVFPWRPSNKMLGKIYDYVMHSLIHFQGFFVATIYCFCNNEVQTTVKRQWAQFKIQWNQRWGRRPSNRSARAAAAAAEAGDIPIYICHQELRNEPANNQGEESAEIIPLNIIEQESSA
T1 sequence 2: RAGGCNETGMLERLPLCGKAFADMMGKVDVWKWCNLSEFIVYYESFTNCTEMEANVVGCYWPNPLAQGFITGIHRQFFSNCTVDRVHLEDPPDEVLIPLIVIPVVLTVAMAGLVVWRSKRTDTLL
Assay: cell-based or functional assay
Numbered stars: 1 amine (or outer) side, 2 acyl side, 3 side chain; on linkers, the order of the positions; unused ones are H or OH. Bridge positions count the residues as written; N and C are the ends. Square brackets hold non-standard residues; d marks the D form. Side chains are listed from the residue outwards. Ends that are not written are not given here. * marks the point of attachment. C20 diacid = O=C(O)CCCCCCCCCCCCCCCCCCC(=O)*; γGlu = O=C(O)[C@H](CCC(=O)[*:2])N[*:1]; Hyp = O=C(O)[C@@H]1C[C@@H](O)CN1; AEEA = NCCOCCOCC(=O)O
For each record, write down the corresponding hAMY3R EC50 (cAMP).
Please reply with the bare figure in nM and do not write the unit itself.

Incoming: Answer with the recorded hAMY3R EC50 (cAMP) of GCRFGTCTVQRLAHQIYQFTDKDKDNVAPRTKIGPNG[Hyp]-NH2 (disulfide 2-7 (inferred); ends not checked) [SEQ ID NO: 124] only.
Outgoing: 0.027

Incoming: Answer with the recorded hAMY3R EC50 (cAMP) of KCNTATCTVQRLAEQIYQFTDKDKDK([AEEA-AEEA-γGlu-C20 diacid])VAPPTNVGSNG[Hyp]-NH2 (disulfide 2-7 (inferred); not fully specified (N-terminus); ends not checked) [SEQ ID NO: 41] only.
Outgoing: 0.01

Incoming: Answer with the recorded hAMY3R EC50 (cAMP) of GCRTGTCTVQRLAHQIYQFTNKDKDNVAPRSKISPQF[Hyp]-NH2 (disulfide 2-7 (inferred); ends not checked) [SEQ ID NO: 238] only.
Outgoing: 0.235
